# procedureSummary: In vitro human liver microsomal stability assay
# Assay type: in vitro ADME
# experimentalConditions: human liver microsomes 0.5 mg/mL protein, NADPH 2 mM, pH 7.4, 1 μM test compound, 37 °C, 0-45 min; change relative to non-deuterated (d0) comparative compound

| molecule | Half-life % change over d0 [%] |
| --- | --- |
| [2H]C([2H])(NCC1(F)CCN(C(=O)c2ccc(F)c(Cl)c2)CC1)c1ccc(C)cn1 [Example 5] | 7.2 |
| Cc1cnc(CNCC2(F)CCN(C(=O)c3ccc(F)c(Cl)c3)CC2)nc1 [Example 8, reference compound] | 0 |
| [2H]C([2H])([2H])c1ccc(C([2H])([2H])NCC2(F)CCN(C(=O)c3ccc(F)c(Cl)c3)CC2)nc1 [Example 4] | 5.4 |
| Cc1ccc(CNCC2(F)CCN(C(=O)c3ccc(F)c(Cl)c3)CC2)nc1 [Example 1, reference compound] | 0 |
